Measured IC50 of individual entries
# Assay remarks: Cell cytotoxicity assay on MT-2 cells
# Type: cell-based
# Assay setup: human, read-out: Cytotoxity (ID50, μM) MT-2

A selection of reference data follows.
mol_smiles=NC(=O)c1cc2ccc3c(c2c(-c2ccc4c(c2)OCO4)c1C(=O)O)OCO3 result="5 µM"
mol_smiles=O=c1[nH][nH]c(=O)c2c(-c3ccc4c(c3)OCO4)c3c4c(ccc3cc12)OCO4 result="16 µM"

Qu. Fill blank: measured IC50 of the compound CN1Cc2c(cc3ccc4c(c3c2-c2ccc3c(c2)OCO3)OCO4)C1=O is ____.
Ans. 8 µM

Qu. What would you report for O=C(O)c1cc2ccc3c(c2c(-c2ccc4c(c2)OCO4)c1C(=O)O)OCO3 ?
Ans. > 100 µM

====

# Test system: EBV
# Assay remarks: In vitro antiviral assay for EBV
# Type: cell-based, Epstein-Barr Virus
# Assay setup: in vitro; read-out: Antiviral Activities (EC50, μM) EBV
Where a name gives a salt, the structure may show the parent alone.
Measured attribute: EC50

Would you please look over these solved cases?
compound="O=C1c2cc3ccc4c(c3c(-c3ccc5c(c3)OCO5)c2C(=O)N1CCCOCc1ccccc1)OCO4 [Compound 10]" result="> 5 µM"
compound="O=c1[nH][nH]c(=O)c2c(-c3ccc4c(c3)OCO4)c3c4c(cc(Br)c3cc12)OCO4 [Compound 42]" result="> 20 µM"
compound="O=C1NCc2cc3ccc4c(c3c(-c3ccc5c(c3)OCO5)c21)OCO4 [Compound 16]" result="> 20 µM"

Please find the next compound below.
Qu. Quick check: EC50 on EBV, item O=C(O)c1cc2c(Br)cc3c(c2c(-c2ccc4c(c2)OCO4)c1CO)OCO3 [Compound 45, monosodium salt] ?
Ans. > 20 µM

====

# Assay remarks: Cell cytotoxicity assay on CEM cells
# Type: cell-based
# Assay setup: human, read-out: Cytotoxity (ID50, μM) CEM
Entries and their IC50 values follow.
Numbers only; they are read as µM.

Solved entries (count: 10):
compound="O=C1OCc2c1c(-c1ccc3c(c1)OCO3)c1c3c(ccc1c2O)OCO3 [Compound 34]" measured_attribute=IC50 units_symbol=µM numeric_value=31
compound="CN1Cc2c(cc3ccc4c(c3c2-c2ccc3c(c2)OCO3)OCO4)C1=O [Compound 19]" measured_attribute=IC50 units_symbol=µM numeric_value=6
compound="O=C1c2cc3ccc4c(c3c(-c3ccc5c(c3)OCO5)c2C(=O)N1O)OCO4 [Compound 24]" measured_attribute=IC50 units_symbol=µM numeric_value=17
compound="O=c1[nH][nH]c(=O)c2c(-c3ccc4c(c3)OCO4)c3c4c(cc(I)c3cc12)OCO4 [Compound 43]" measured_attribute=IC50 units_symbol=µM numeric_value=40
compound="CCOC(=O)c1c(C(=O)OCC)c(-c2ccc3c(c2)OCO3)c2c3c(ccc2c1O)OCO3 [Compound 33]" measured_attribute=IC50 units_symbol=µM numeric_value=39
compound="O=C1c2cc3ccc4c(c3c(-c3ccc5c(c3)OCO5)c2CN1CCCOCc1ccccc1)OCO4 [Compound 20]" measured_attribute=IC50 units_symbol=µM numeric_value=67
compound="NC(=O)c1cc2ccc3c(c2c(-c2ccc4c(c2)OCO4)c1C(=O)O)OCO3 [Compound 12]" measured_attribute=IC50 units_symbol=µM numeric_value=8.4
compound="CNC(=O)c1cc2ccc3c(c2c(-c2ccc4c(c2)OCO4)c1C(=O)O)OCO3 [Compound 13]" measured_attribute=IC50 units_symbol=µM numeric_value=29
compound="O=C([O-])c1cc2ccc3c(c2c(-c2ccc4c(c2)OCO4)c1CO)OCO3.[Na+] [Compound 3, monosodium salt]" measured_attribute=IC50 units_symbol=µM numeric_value=30
compound="O=C1OCc2c1cc1ccc3c(c1c2-c1ccc2c(c1)OCO2)OCO3 [Compound 2, reference compound]" measured_attribute=IC50 units_symbol=µM numeric_value=31

Qu. Please look up its IC50: COc1ccc(-c2c3c(cc4ccc5c(c24)OCO5)C(=O)NC3)cc1OC [Compound 22]
Ans. 5

Qu. Next compound up: O=C1OCc2c1cc1c(Br)cc3c(c1c2-c1ccc2c(c1)OCO2)OCO3 [Compound 38]
Ans. 100

Qu. Same read-out for O=C1NCc2c1cc1c(Br)cc3c(c1c2-c1ccc2c(c1)OCO2)OCO3 [Compound 40] ?
Ans. 38
